Molecular target: mouse thyrotropin releasing hormone receptor (TRH-R) (Mus musculus, UniProt P21761)
Construct: containing the protein-coding region of the mouse TRH-R cDNA, nucleotides 233-1462 of plasmid pBSmTRHR; expressed in transfected cells; host or cells: Primary Sprague-Dawley rat hepatocytes transduced with adenovirus AdCMV.mTRH-R, either in vitro (moi 1-100) or in vivo (i.v., hepatocytes isolated 5 days later)
Sequence (P21761 whole entry): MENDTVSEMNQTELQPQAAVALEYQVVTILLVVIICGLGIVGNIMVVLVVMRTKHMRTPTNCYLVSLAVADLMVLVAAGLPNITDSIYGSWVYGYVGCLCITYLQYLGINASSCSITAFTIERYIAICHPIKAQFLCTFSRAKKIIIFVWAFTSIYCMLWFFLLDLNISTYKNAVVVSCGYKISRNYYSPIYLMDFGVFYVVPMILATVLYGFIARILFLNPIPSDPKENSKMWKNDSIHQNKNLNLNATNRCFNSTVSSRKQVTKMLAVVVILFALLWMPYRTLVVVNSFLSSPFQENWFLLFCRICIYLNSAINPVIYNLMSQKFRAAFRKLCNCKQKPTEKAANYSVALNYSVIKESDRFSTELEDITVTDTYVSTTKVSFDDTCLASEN
Assay: [3H]methyl-TRH binding to primary hepatocytes from rats after in vivo adenovirus-mediated transfer of the TRH-R cDNA
Parameters: species or system rat
Conditions: read-out: Kd of methyl-TRH binding
Measure name: pKd
Numbers only, as −log10 of the molar value.

# lookup: pKd of Cn1cnc(C[C@H](NC(=O)[C@@H]2CCC(=O)N2)C(=O)N2CCC[C@H]2C(N)=O)c1
8.60
